- target of assay: von Hippel-Lindau disease tumor suppressor/Tyrosine-protein phosphatase non-receptor type 11 (Homo sapiens, UniProt Q06124+P40337)
- Sequence (P40337 whole entry partner): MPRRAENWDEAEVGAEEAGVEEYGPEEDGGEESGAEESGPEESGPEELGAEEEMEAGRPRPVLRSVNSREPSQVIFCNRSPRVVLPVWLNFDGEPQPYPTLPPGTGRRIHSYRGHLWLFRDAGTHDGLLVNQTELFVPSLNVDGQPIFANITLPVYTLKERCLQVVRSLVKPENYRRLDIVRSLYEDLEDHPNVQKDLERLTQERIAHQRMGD
- Sequence (Q06124 2-593 limits assumed): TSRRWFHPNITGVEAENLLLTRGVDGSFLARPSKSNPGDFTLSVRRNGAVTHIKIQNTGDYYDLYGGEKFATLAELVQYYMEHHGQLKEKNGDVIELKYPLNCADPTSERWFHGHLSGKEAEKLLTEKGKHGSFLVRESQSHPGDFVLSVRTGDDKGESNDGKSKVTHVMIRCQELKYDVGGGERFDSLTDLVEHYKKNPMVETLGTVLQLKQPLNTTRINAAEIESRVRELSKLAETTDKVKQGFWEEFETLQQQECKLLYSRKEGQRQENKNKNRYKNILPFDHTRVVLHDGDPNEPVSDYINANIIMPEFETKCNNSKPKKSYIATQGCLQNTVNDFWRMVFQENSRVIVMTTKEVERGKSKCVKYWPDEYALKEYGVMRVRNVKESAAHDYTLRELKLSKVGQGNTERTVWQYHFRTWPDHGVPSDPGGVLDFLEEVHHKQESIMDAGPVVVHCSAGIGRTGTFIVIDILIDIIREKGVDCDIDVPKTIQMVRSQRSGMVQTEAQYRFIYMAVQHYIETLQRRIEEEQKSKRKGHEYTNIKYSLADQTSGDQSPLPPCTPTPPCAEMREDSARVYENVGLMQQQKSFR
- assay remarks: Protac activity at VHL1/SHP2 in human MV4-11 cells assessed as induction of SHP2 degradation at 0.1 uM measured after 24 hrs by Western blot analysis relative to control
- Assay type: cell-based
parameter: Activity (%)

1: Cc1ncsc1-c1ccc([C@H](C)NC(=O)[C@@H]2C[C@@H](O)CN2C(=O)[C@@H](NC(=O)CCCCCCCCCCN2CCN(CC(=O)Nc3cccc(Sc4ncc(N5CCC(C)(N)CC5)nc4N)c3Cl)CC2)C(C)(C)C)cc1 (single isomer, unassigned)
2: Cc1ncsc1-c1ccc([C@H](C)NC(=O)[C@@H]2C[C@@H](O)CN2C(=O)[C@@H](NC(=O)COCCOCCOCCOCCNC(=O)CCC(=O)Nc2cccc(Sc3ncc(N4CCC(C)(N)CC4)nc3N)c2Cl)C(C)(C)C)cc1 (single isomer, unassigned)
Qu. Which of the two items, 1 and 2 , has the greater recorded Activity? Use the label to indicate which entry you chose.
Ans. 2
